# TEST SUMMARY: Selectivity index, ratio of IC50 for rat L6 cells to IC50 for bloodstream Trypanosoma brucei rhodesiense STIB 900
# Format: toxicity, cell-based
# RECORDED CONDITIONS: read-out: Ratio IC50
Would you mind classing the entries by selectivity ratio? Ranges: interval 1 = under 20, interval 2 = from 20 up to 200, interval 3 = 200 and over

## Task Entry CC1=CC(C)(C)N(Cc2ccc(Cl)cc2)c2ccc(O)cc21 belongs to which category?
## Result interval 2

## Task Entry CC(=O)Oc1ccc2c(c1)C(C)=CC(C)(C)N2Cc1ccc(C#N)cc1 belongs to which category?
## Result interval 2

## Task Entry CC1=CC(C)(C)Nc2ccc(OC(=O)c3cccc(C(=O)Oc4ccc5c(c4)C(C)=CC(C)(C)N5)c3)cc21 belongs to which category?
## Result interval 3

## Task Entry CC(=O)Oc1ccc2c(c1)C(C)=CC(C)(C)N2C belongs to which category?
## Result interval 2

## Task Entry CC1=CC(C)(C)Nc2ccc(O)cc21 belongs to which category?
## Result interval 2

## Task Entry CC1=CC(C)(C)N(Cc2ccccc2)c2ccc(OC(=O)C3CCCCC3)cc21 belongs to which category?
## Result interval 3

## Task Entry O=C(Oc1ccc2ncccc2c1)c1ccc2c(c1)OCO2 belongs to which category?
## Result interval 1

## Task Entry CC(=O)Oc1ccc2c(c1)C(C)=CC(C)(C)N2Cc1ccc(F)cc1 belongs to which category?
## Result interval 3

## Task Entry COc1ccc(CN2c3ccc(O)cc3C(C)=CC2(C)C)cc1 belongs to which category?
## Result interval 2

## Task Entry COc1ccccc1COc1ccc2c(c1)C(C)=CC(C)(C)N2 belongs to which category?
## Result interval 1

## Task Entry CC1=CC(C)(C)N(Cc2ccccn2)c2ccc(O)cc21 belongs to which category?
## Result interval 1

## Task Entry CC1=CC(C)(C)Nc2ccc(OCc3ccccc3)cc21 belongs to which category?
## Result interval 1

## Task Entry CC(=O)Oc1ccc2c(c1)C(C)=CC(C)(C)N2Cc1cccc(C#N)c1 belongs to which category?
## Result interval 2

## Task Entry CC1=CC(C)(C)N(Cc2ccccc2)c2ccc(OC(=O)c3ccccc3)cc21 belongs to which category?
## Result interval 3

## Task Entry CC1=CC(C)(C)Nc2ccc(OC(=O)c3ccc4c(c3)OCO4)cc21 belongs to which category?
## Result interval 2

## Task Entry COc1ccc(CN2c3ccc(OC(C)=O)cc3C(C)=CC2(C)C)cc1 belongs to which category?
## Result interval 3

## Task Entry CC1=CC(C)(C)Nc2ccc(OCCc3ccccc3)cc21 belongs to which category?
## Result interval 2

## Task Entry COc1cc(OC)cc(C(=O)Oc2ccc3c(c2)C(C)=CC(C)(C)N3Cc2ccc(Cl)cc2)c1 belongs to which category?
## Result interval 3

## Task Entry CC(=O)Oc1ccc2c(c1)C(C)=CC(C)(C)N2Cc1cccc(C)c1 belongs to which category?
## Result interval 2

## Task Entry CC1=CC(C)(C)N(Cc2ccncc2)c2ccc(O)cc21 belongs to which category?
## Result interval 2

## Task Entry CC(=O)Oc1ccc2c(c1)C(C)=CC(C)(C)N2Cc1ccc(C(C)(C)C)cc1 belongs to which category?
## Result interval 1

## Task Entry CC(=O)Oc1ccc2c(c1)C(C)=CC(C)(C)N2Cc1ccc(Cl)c(Cl)c1 belongs to which category?
## Result interval 3

## Task Entry COc1cc(CN2c3ccc(OC(C)=O)cc3C=CC2(C)C)cc(OC)c1 belongs to which category?
## Result interval 2

## Task Entry CC1=CC(C)(C)Nc2ccc(OCc3ccc(C(F)(F)F)cc3)cc21 belongs to which category?
## Result interval 1

## Task Entry CC1=CC(C)(C)N(Cc2ccccc2)c2ccc(OC(=O)C(C)(C)C)cc21 belongs to which category?
## Result interval 3

## Task Entry CC1=CC(C)(C)N(Cc2ccc(C)cc2)c2ccc(O)cc21 belongs to which category?
## Result interval 2

## Task Entry COc1cc(OC)cc(C(=O)Oc2ccc3c(c2)C(C)=CC(C)(C)N3Cc2ccccc2)c1 belongs to which category?
## Result interval 3

## Task Entry CCCCCCCC(=O)Oc1ccc2c(c1)C(C)=CC(C)(C)N2Cc1ccccc1 belongs to which category?
## Result interval 3

## Task Entry COc1cc(COc2ccc3c(c2)C(C)=CC(C)(C)N3)cc(OC)c1 belongs to which category?
## Result interval 1

## Task Entry CC(=O)Oc1ccc2c(c1)C(C)=CC(C)(C)N2Cc1ccc(Cl)cc1 belongs to which category?
## Result interval 2

## Task Entry CC(=O)Oc1ccc2c(c1)C(C)=CC(C)(C)N2Cc1ccccc1 belongs to which category?
## Result interval 3

## Task Entry CC1=CC(C)(C)N(Cc2ccccc2)c2ccc(OC(=O)Cc3ccccc3)cc21 belongs to which category?
## Result interval 3

## Task Entry CC(=O)Oc1ccc2c(c1)C(C)=CC(C)(C)N2Cc1cccc(Cl)c1 belongs to which category?
## Result interval 3

## Task Entry COc1cc(OC)cc(C(=O)Oc2ccc3c(c2)C(C)=CC(C)(C)N3Cc2ccc(C)cc2)c1 belongs to which category?
## Result interval 3

## Task Entry COc1cc(OC)cc(C(=O)Oc2ccc3ncccc3c2)c1 belongs to which category?
## Result interval 1

## Task Entry COc1cc(CN2c3ccc(O)cc3C(C)=CC2(C)C)cc(OC)c1 belongs to which category?
## Result interval 2

## Task Entry CC(=O)Oc1ccc2c(c1)N(Cc1ccccc1)C(C)(C)C=C2C belongs to which category?
## Result interval 1

## Task Entry CC(=O)Oc1ccc2c(c1)C(C)=CC(C)(C)N2Cc1cccc(C(F)(F)F)c1 belongs to which category?
## Result interval 3

## Task Entry CC(=O)Oc1ccc2c(c1)C(C)=CC(C)(C)N2C(C)=O belongs to which category?
## Result interval 2

## Task Entry COc1cc(OC)cc(C(=O)Oc2ccc3c(c2)C(C)=CC(C)(C)N3)c1 belongs to which category?
## Result interval 3

## Task Entry CC1=CC(C)(C)Nc2ccc(OCc3cccc(C(F)(F)F)c3)cc21 belongs to which category?
## Result interval 1
